Hey, just so you know, these numbers are from patent US20220298235A1.

tested system: T1, Human IL12 (His Tag) (human, UniProt P29459 23-219; P29460 23-328)
T1 construct: Bought His-tagged heterodimer
T1 sequence (looked up) 1: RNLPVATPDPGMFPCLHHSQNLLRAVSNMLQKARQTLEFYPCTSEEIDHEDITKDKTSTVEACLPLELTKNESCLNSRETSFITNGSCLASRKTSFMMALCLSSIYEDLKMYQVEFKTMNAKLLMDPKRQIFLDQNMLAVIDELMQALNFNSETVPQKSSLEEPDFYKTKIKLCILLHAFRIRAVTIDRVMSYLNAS
T1 sequence (looked up) 2: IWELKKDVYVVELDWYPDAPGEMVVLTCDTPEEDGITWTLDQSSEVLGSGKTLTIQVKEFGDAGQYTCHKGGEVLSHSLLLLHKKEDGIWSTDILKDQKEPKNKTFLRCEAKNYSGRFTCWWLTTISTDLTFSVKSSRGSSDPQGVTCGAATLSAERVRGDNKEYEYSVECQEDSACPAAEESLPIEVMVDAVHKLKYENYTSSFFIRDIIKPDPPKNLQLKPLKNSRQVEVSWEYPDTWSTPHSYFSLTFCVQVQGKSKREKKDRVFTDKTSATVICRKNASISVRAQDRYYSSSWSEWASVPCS
procedure details: FACS competition, IL-12-His 20 nM on 293T-IL-12Rβ1&IL-23R cells; antibody 0.01 µg/mL
assay readout: MFI
Quote the value and follow it with the unit of measurement.

Name the reported MFI value associated with the binder H5L10 (antibody, human IgG1, kappa, V domains shown, human IgG1 / kappa constant regions; also called humanized antibody H5L10) VH: EVQLVQSGAEVKKPGESLKISCQSSGYSFTTYWIGWVRQMPGQGLEWIGIMSPVDSDIRYNPMFRGQVTMSVDKSSSTAYLQWSSLKASDTAMYYCARRRPGQGYFDFWGQGTMVTVSS VL: EIVLTQSPATLSASPGERATISCRASQSVGSWLAWYQQKPGQAPRSLIYAASNLQSGIPARFSGSGSGTDFTLTISSLEPEDFAVYYCQQYNIYPYTFGQGTRLEIKR
163 MFI

Which MFI reading was recorded for the binder ustekinumab (antibody, V domains shown) VH: EVQLVQSGAEVKKPGESLKISCKGSGYSFTTYWLGWVRQMPGKGLDWIGIMSPVDSDIRYSPSFQGQVTMSVDKSITTAYLQWNSLKASDTAMYYCARRRPGQGYFDFWGQGTLVTVSS VL: DIQMTQSPSSLSASVGDRVTITCRASQGISSWLAWYQQKPEKAPKSLIYAASSLQSGVPSRFSGSGSGTDFTLTISSLQPEDFATYYCQQYNIYPYTFGQGTKLEIK ?
160 MFI

Reported MFI, binder H5L9 (antibody, human IgG1, kappa, V domains shown, human IgG1 (P01857) / kappa (P01834) constant regions; also called humanized antibody H5L9) VH: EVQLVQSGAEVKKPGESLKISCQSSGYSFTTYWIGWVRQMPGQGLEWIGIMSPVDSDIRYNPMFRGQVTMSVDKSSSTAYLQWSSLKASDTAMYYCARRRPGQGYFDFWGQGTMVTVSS VL: DIQMTQSPSSLSASVGDRVTITCKASQNVGSWLAWYQQKPGKAPKSLIYSASSRQSGVPSRFSGSGSGTDFTLTISSLQPEDFATYYCQQYDIYPFTFGQGTKLEIKR : ____
169 MFI

Need MFI of H5L11 (antibody, human IgG1, kappa, V domains shown, human IgG1 / kappa constant regions; also called humanized antibody H5L11) VH: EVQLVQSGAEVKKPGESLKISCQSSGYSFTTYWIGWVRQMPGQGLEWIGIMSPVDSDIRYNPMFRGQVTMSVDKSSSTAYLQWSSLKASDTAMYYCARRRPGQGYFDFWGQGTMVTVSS VL: EIVLTQSPATLSASPGERATISCRASQSVSSWLAWYQQKPGQAPRSLIYSASNLQSGIPARFSGSGSGTDFTLTISSLEPEDFAVYYCQQYNIYPYTFGQGTRLEIKR , thanks.
166 MFI

Look up MFI: H5L14 (antibody, human IgG1, kappa, V domains shown, human IgG1 / kappa constant regions; also called humanized antibody H5L14) VH: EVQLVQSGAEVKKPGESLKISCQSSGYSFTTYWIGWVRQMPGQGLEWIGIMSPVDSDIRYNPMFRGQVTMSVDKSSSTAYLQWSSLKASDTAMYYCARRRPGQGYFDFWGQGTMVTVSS VL: EIVLTQSPATLSASPGERATISCRASQSVSSWLAWYQQKPGQAPRSLIYAASNLQSGIPARFSGSGSGTDFTLTISSLEPEDFAVYYCQQYNIYPFTFGQGTRLEIKR
149 MFI

Can you share its MFI? I mean this binder: H5L12 (antibody, human IgG1, kappa, V domains shown, human IgG1 / kappa constant regions; also called humanized antibody H5L12) VH: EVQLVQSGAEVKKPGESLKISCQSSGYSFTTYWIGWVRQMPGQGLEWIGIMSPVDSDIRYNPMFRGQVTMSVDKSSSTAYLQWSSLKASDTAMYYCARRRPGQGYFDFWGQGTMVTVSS VL: EIVLTQSPATLSASPGERATISCRASQSVSSWLAWYQQKPGQAPRSLIYAASNRQSGIPARFSGSGSGTDFTLTISSLEPEDFAVYYCQQYNIYPYTFGQGTRLEIKR
161 MFI
